- system: T1, murine Jag2-DSL-EGF1-4 (M27-E388) (UniProt Q9QYE5 27-388)
- T1 chain: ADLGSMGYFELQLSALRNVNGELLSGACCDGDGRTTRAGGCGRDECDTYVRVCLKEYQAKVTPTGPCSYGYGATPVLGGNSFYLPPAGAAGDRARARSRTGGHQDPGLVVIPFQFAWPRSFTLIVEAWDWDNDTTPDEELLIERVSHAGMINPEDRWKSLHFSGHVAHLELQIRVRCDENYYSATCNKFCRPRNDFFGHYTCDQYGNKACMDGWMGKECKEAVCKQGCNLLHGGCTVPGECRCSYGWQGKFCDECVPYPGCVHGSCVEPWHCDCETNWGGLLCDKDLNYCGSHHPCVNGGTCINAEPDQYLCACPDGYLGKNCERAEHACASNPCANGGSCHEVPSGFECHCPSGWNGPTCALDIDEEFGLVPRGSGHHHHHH
- test method notes: Biacore (SPR)
Parameter: Kd. Scope: all listed entries.
Give just the numeric value; nM need not be written.

binder	quantity kind	value
B-3 (antibody, V domains shown) VH: EVQLVESGGGLVQPGGSLRLSCAASGFTFTSYDIHWVRQAPGKGLEWVGGISPADGDTDYANSVKGRFTISADTSKNTAYLQMNSLRAEDTAVYYCARNDYDVRFVGSGMDYWGQGTLVTVSS VL: DIQMTQSPSSLSASVGDRVTITCRASQDVSTAVAWYQQKPGKAPKLLIYSASFLYSGVPSRFSGSGSGTDFTLTISSLQPEDFATYYCQQSFTAPPTFGQGTKVEIK	Kd	0.3
C-1 (antibody, V domains shown) VH: EVQLVESGGGLVQPGGSLRLSCAASGFTFTNSDIHWVRQAPGKGLEWVGGITPADGYTDYADSVKGRFTISADTSKNTAYLQMNSLRAEDTAVYYCARSYWSSSPGSAFDYWGQGTLVTVSS VL: DIQMTQSPSSLSASVGDRVTITCRASQDVSTAVAWYQQKPGKAPKLLIYSASFLYSGVPSRFSGSGSGTDFTLTISSLQPEDFATYYCQQSYISPSTFGQGTKVEIK	Kd	0.73

Proceed to the following item.
Look up Kd: B (antibody, V domains shown) VH: EVQLVESGGGLVQPGGSLRLSCAASGFTFTSYDIHWVRQAPGKGLEWVGGISPADGDTDYANSVKGRFTISADTSKNTAYLQMNSLRAEDTAVYYCARNDYDVRSVGSGMDYWGQGTLVTVSS VL: DIQMTQSPSSLSASVGDRVTITCRASQDVSTAVAWYQQKPGKAPKLLIYSASFLYSGVPSRFSGSGSGTDFTLTISSLQPEDFATYYCQQSYTTPPTFGQGTKVEIK
1
